# System: RARa homodimer (NR concentration 270 nM)
# Method: PBM binding z-score (relative to random genomic background probes); higher = stronger binding; sequences stand for … in GC…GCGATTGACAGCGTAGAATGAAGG
The entries below are paired with their reported PBM binding z-score.
Reply briefly: the number, and no unit.

Here is how some sequences turned out for PBM binding z-score.
{"Sequence": "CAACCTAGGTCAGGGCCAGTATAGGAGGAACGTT", "Target Or System": "RARa homodimer (NR concentration 270 nM)", "Measurement Label": "PBM binding z-score", "Obs Value": 0.172}
{"Sequence": "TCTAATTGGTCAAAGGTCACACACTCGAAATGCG", "Target Or System": "RARa homodimer (NR concentration 270 nM)", "Measurement Label": "PBM binding z-score", "Obs Value": 5.86}

Could you now look at the following sequence, please?
Entry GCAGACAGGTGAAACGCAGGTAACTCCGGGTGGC , PBM binding z-score reported as -0.954

---

# Test system: FXR:RXRa (NR concentration 270 nM, RXRa partner concentration 90 nM)
# Method: PBM binding z-score (relative to random genomic background probes); higher = stronger binding; sequences stand for … in GC…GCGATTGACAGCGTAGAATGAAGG
PBM binding z-score: recorded values
Provide a numeric answer; units are not to be included.

Guide cases for PBM binding z-score, answers given:
{"Sequence": "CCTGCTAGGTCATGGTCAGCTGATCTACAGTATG", "Obs Value": 4.51}
{"Sequence": "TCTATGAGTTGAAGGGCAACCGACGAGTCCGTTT", "Obs Value": 0.419}
{"Sequence": "CCTAGTTGGTCCAGGTCACACACGCTATAGGTAC", "Obs Value": 1.93}
{"Sequence": "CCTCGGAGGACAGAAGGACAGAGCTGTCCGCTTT", "Obs Value": -0.348}
{"Sequence": "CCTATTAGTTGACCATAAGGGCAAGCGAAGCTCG", "Obs Value": 0.766}

response.value for CATACAGGGTGAGCTAGGCCAGAGTAGGGACGGC (field: PBM binding z-score) = 0.0783

Per the record, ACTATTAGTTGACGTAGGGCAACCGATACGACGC has PBM binding z-score of -0.0128

For this sequence ( CCTACTGGGCCATCAGGTCTTTGATATCAACGTT ), measured PBM binding z-score is -0.207

Consider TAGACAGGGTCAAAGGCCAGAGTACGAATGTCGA . Its measured PBM binding z-score is 7.27

Notebook: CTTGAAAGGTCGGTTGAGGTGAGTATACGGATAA , PBM binding z-score read as 3.64

get_value(item= GCTGCTAGGTCAGGTCGGTCAGCTAACGGGTACG , readout=PBM binding z-score) returns 1.34

Input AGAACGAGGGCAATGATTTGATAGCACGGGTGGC . Output PBM binding z-score: 0.321

PBM binding z-score for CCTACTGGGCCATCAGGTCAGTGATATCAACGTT is 0.148

---

# System: PXR homodimer (NR concentration 270 nM)
# Method: PBM binding z-score (relative to random genomic background probes); higher = stronger binding; sequences stand for … in GC…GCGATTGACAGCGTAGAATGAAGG
Measurement Label: PBM binding z-score
Just the number, please, no unit attached.

Guide cases for PBM binding z-score, answers given:
{"Sequence": "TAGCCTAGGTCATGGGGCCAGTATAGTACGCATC", "PBM binding z-score": -0.641}
{"Sequence": "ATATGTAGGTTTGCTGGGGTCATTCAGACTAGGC", "PBM binding z-score": 7.95}
{"Sequence": "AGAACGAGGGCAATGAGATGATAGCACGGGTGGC", "PBM binding z-score": 0.0572}

The observed PBM binding z-score for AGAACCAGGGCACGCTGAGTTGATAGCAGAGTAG when tested with PXR homodimer (NR concentration 270 nM) stands at -0.341
